# assayed_system: T1, soluble αVβ6 headpiece, disulfide-linked (αV headpiece residues 1-594 with M400C); β6 headpiece residues 1-474 … (UniProt P06756 31-624; P18564 18-491, Interchain disulfide between αV Cys-400 and β6 Cys-270.)
# T1 alpha: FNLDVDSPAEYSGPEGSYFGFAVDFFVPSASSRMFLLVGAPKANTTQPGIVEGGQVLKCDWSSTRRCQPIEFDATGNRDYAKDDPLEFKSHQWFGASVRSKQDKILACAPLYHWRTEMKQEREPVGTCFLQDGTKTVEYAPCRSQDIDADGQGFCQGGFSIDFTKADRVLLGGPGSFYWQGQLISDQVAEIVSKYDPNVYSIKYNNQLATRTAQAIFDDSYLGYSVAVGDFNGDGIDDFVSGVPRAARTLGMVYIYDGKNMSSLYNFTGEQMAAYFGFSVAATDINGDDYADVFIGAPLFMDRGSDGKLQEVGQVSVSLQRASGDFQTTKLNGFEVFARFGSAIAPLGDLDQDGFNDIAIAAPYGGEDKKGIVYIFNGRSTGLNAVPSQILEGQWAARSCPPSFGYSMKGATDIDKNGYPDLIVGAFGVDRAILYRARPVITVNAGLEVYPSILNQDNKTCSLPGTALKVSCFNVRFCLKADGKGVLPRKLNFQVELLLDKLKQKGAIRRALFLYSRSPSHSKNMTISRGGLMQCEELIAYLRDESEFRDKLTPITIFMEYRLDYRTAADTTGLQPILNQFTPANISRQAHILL
# T1 beta: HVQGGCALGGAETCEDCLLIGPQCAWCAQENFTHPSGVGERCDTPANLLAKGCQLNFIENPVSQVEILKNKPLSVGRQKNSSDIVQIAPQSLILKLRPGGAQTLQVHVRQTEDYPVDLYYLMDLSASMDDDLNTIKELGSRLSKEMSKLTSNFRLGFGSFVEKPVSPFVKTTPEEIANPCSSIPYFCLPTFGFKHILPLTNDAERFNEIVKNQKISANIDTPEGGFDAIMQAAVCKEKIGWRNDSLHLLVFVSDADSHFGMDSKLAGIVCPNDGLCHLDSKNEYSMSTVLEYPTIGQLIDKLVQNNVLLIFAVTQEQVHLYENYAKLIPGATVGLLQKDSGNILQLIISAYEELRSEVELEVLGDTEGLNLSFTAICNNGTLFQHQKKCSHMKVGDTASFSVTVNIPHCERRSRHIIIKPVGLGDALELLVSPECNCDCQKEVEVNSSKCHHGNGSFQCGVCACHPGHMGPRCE
# method: fluorescence anisotropy competition
Reported log10(Kd) values for the following binders.
readout: log10(Kd) (log10 of the value in nM)

{"binder": "HGRGDLGRL", "log10(Kd)": 1.45}
{"binder": "Ac-HGRGDLGRLKK-NH2 (also called Pro-TGF-β3 peptide; TGF-β3 peptide) [pro-TGF-β3 undecapeptide Ac-HGRGDLGRLKK-NH2]", "log10(Kd)": 0.86}
{"binder": "HGRGDLG", "log10(Kd)": 2.84}
{"binder": "HGRGDL", "log10(Kd)": 2.98}
{"binder": "HGRGDLGRLK", "log10(Kd)": 1.31}
{"binder": "HGRGD", "log10(Kd)": 3.95}
{"binder": "HGRGDLGR", "log10(Kd)": 2.47}

Data provenance: patent US20170183390A1
